Biological target: human GCG receptor (Homo sapiens, UniProt P47871)
Construct: expressed in transfected cells; host or cells: Chinese hamster ovary (CHO)
Assay: In vitro activity (cAMP accumulation, LANCE cAMP kit) in CHO cells expressing human GCG receptor
Type: cell-based
Details: long-acting conjugate, relative potency from cAMP EC50 compared to human GCG
Bridges are numbered along the chain shown (N, C = ends). Where no end group is shown, it is not given here. [ ]: non-standard residue; d: D form. Aib = CC(C)(N)C(=O)O
TEST READOUT: In vitro activity relative to native peptide (%) vs. Glucagon
Kindly answer with a numeric value in %, unit omitted.

These solved cases illustrate the format of a correct answer.
77 (Y[Aib]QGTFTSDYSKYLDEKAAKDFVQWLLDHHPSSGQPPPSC; bridge 16-20) [compound 77]: 1.7
96 (Y[Aib]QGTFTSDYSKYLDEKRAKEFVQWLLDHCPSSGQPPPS; bridge 16-20) [compound 96]: 4.0
43 (Y[Aib]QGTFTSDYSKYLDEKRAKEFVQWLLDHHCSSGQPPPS; bridge 16-20) [compound 43]: 13.5

Below: the item to evaluate.
The reported In vitro activity relative to native peptide (%) vs. Glucagon of the substance 22 (Y[Aib]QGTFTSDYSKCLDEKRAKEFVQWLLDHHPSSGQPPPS; bridge 16-20) [compound 22] was 0.9

----------
Biological target: human GCG receptor (Homo sapiens, UniProt P47871)
Construct: expressed in transfected cells; host or cells: Chinese hamster ovary (CHO)
Assay: In vitro activity (cAMP accumulation, LANCE cAMP kit) in CHO cells expressing human GCG receptor
Type: cell-based
Details: long-acting conjugate, relative potency from cAMP EC50 compared to human GCG
Bridges are numbered along the chain shown (N, C = ends). Where no end group is shown, it is not given here. [ ]: non-standard residue; d: D form. Aib = CC(C)(N)C(=O)O
TEST READOUT: In vitro activity relative to native peptide (%) vs. Glucagon
Kindly answer with a numeric value in %, unit omitted.

These solved cases illustrate the format of a correct answer.
42 (Y[Aib]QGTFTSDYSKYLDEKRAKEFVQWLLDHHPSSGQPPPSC; bridge 16-20) [compound 42]: 23.1
21 (Y[Aib]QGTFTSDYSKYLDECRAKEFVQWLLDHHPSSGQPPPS; bridge 16-20) [compound 21]: 1.6

The reported In vitro activity relative to native peptide (%) vs. Glucagon of the substance 50 (H[Aib]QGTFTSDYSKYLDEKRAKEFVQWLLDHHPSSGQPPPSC; bridge 16-20) [compound 50] was 6.9

----------
Molecular target: human GLP-1 receptor (Homo sapiens, UniProt P43220)
Sequence (P43220 24-463): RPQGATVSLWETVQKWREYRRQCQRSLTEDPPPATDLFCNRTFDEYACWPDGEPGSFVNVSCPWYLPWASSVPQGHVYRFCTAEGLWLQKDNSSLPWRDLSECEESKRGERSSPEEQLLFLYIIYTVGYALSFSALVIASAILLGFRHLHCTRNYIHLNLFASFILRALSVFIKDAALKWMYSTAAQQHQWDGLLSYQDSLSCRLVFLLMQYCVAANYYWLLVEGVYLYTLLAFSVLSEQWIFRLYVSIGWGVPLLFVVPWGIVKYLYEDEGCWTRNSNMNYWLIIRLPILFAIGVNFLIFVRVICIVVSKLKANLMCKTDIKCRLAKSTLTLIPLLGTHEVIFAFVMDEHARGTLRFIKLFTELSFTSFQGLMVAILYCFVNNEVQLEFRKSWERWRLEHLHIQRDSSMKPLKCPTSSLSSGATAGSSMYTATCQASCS
Experiment: In vitro activity (cAMP accumulation, LANCE cAMP kit) in CHO cells expressing human GLP-1 receptor
Format: cell-based
Parameters: expressed in transfected cells; host or cells: Chinese hamster ovary (CHO)
Details: long-acting conjugate, relative potency from cAMP EC50 compared to human GLP-1
Bridges are numbered along the chain shown (N, C = ends). Where no end group is shown, it is not given here. [ ]: non-standard residue; d: D form. Aib = CC(C)(N)C(=O)O
Labelling field: enter t if recorded In vitro activity relative to native peptide (%) vs. GLP-1 is less than 3%. Enter f if it equals or exceeds that cut-off.

Consider the following illustrative entries.
22 (Y[Aib]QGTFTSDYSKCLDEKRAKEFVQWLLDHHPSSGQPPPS; bridge 16-20) [compound 22]: t
42 (Y[Aib]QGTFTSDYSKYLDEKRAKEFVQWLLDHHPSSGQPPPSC; bridge 16-20) [compound 42]: f
77 (Y[Aib]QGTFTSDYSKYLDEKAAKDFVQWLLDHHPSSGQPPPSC; bridge 16-20) [compound 77]: f
50 (H[Aib]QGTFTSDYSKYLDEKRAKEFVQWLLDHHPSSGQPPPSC; bridge 16-20) [compound 50]: f
96 (Y[Aib]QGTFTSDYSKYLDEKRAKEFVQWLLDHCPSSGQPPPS; bridge 16-20) [compound 96]: t
43 (Y[Aib]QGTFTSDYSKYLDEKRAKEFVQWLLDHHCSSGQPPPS; bridge 16-20) [compound 43]: t

In the following, a different substance is considered.
[Q] Strictly below 3%: is that where In vitro activity relative to native peptide (%) vs. GLP-1 of 21 (Y[Aib]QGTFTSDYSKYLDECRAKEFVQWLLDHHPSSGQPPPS; bridge 16-20) [compound 21] sits?
[A] t
